Just for reference, ChEMBL document CHEMBL3576802 is where these values come from.

- STUDY_SYSTEM: Melanocortin receptor 4 (Mus musculus)
- Sequence (P56450 whole entry): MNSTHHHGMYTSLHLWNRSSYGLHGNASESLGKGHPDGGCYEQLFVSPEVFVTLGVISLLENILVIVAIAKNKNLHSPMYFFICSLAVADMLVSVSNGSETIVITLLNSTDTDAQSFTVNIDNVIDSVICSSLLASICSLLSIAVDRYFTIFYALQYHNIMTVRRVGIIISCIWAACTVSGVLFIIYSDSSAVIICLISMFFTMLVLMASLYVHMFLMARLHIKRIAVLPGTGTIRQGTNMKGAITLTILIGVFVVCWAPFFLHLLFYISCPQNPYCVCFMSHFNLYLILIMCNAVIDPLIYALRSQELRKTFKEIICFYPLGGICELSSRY
- ASSAY_NOTES: Displacement of MTII from mouse MC4R expressed in HEK293 cells
- Format: cell-based
- MEASUREMENT_SETUP: read-out: pA2 (converted)
Where a SMILES comes first, the peptide text is derived from it. [ ]: non-standard residue; d: D form. Bip = N[C@@H](Cc1ccc(-c2ccccc2)cc1)C(=O)O
OBSERVED_PROPERTY: Kb (nM)
Dear colleague, please return just the value in nM, with no unit written.

Consider the worked cases shown below.
Item: `C[C@@H]1NC(=O)[C@H](CC(N)=O)NC(=O)[C@H](Cc2ccc(-c3ccccc3)cc2)NC(=O)[C@H](Cc2ccccc2)NC(=O)[C@H](CCCNC(=N)N)NC(=O)[C@@H]2CCCN2C(=O)[C@H]2CCCN2C(=O)[C@H](Cc2ccccc2)NC1=O` Test system: Melanocortin receptor 4 (Mus musculus) Read-out: Kb Value: ?
158

Try `C[C@@H]1NC(=O)[C@H](CCCCN)NC(=O)[C@H](Cc2ccccc2)NC(=O)[C@H](Cc2ccccc2)NC(=O)[C@H](CCCNC(=N)N)NC(=O)[C@@H]2CCCN2C(=O)[C@H]2CCCN2C(=O)[C@H](Cc2ccccc2)NC1=O` next.
5.01

Try `CC(=O)N[C@H](C(=O)N[C@H]1CSSC[C@@H](C(=O)N[C@@H](CCCNC(=N)N)C(N)=O)NC(=O)[C@H](Cc2ccc(O)cc2)NC(=O)[C@@H]2CSSC[C@H](NC(=O)[C@H](Cc3ccc(O)cc3)NC1=O)C(=O)N[C@@H](CCCNC(=N)N)C(=O)N[C@@H](Cc1ccccc1)C(=O)N[C@@H](Cc1ccccc1)C(=O)N[C@@H](CC(N)=O)C(=O)N[C@@H](C)C(=O)N[C@@H](Cc1ccccc1)C(=O)N2)[C@@H](C)O` next.
63.1

Try `C[C@@H]1NC(=O)CNC(=O)[C@H](Cc2ccccc2)NC(=O)[C@H](Cc2ccccc2)NC(=O)[C@H](CCCNC(=N)N)NC(=O)[C@@H]2CCCN2C(=O)[C@H]2CCCN2C(=O)[C@H](Cc2ccccc2)NC1=O` next.
3.98

Try C[C@@H]1NC(=O)[C@H](CC(N)=O)NC(=O)[C@H](Cc2ccccc2)NC(=O)[C@H](Cc2ccccc2)NC(=O)[C@H](CCCNC(=N)N)NC(=O)[C@H]([C@@H](C)O)NC(=O)[C@H](Cc2ccc(O)cc2)NC(=O)[C@@H]2CCCN2C(=O)[C@H]2CCCN2C(=O)[C@H](Cc2ccc(O)cc2)NC(=O)[C@H]([C@@H](C)O)NC(=O)[C@H](Cc2ccccc2)NC1=O (cyclo(YTRFFNAFTY[dP]P)) next.
158

Switching to the query record.
Item: C[C@@H]1NC(=O)[C@H](CC(N)=O)NC(=O)[C@H](Cc2ccccc2)NC(=O)[C@H](Cc2ccc(-c3ccccc3)cc2)NC(=O)[C@H](CCCNC(=N)N)NC(=O)[C@@H]2CCCN2C(=O)[C@H]2CCCN2C(=O)[C@H](Cc2ccccc2)NC1=O (cyclo(R[Bip]FNAF[dP]P)) Test system: Melanocortin receptor 4 (Mus musculus) Read-out: Kb Value: ?
158

====

Parameter Ki, tested on Melanocortin receptor 3 (Mus musculus), listed per item.
Where a SMILES comes first, the peptide text is derived from it. [ ]: non-standard residue; d: D form. Bip = N[C@@H](Cc1ccc(-c2ccccc2)cc1)C(=O)O
Dear colleague, please return just the value in nM, with no unit written.

Consider the worked cases shown below.
Item: C[C@@H]1NC(=O)[C@H](CC(N)=O)NC(=O)[C@H](Cc2ccccc2)NC(=O)C(Cc2ccc3ccccc3c2)NC(=O)[C@H](CCCNC(=N)N)NC(=O)[C@@H]2CCCN2C(=O)[C@H]2CCCN2C(=O)[C@H](Cc2ccccc2)NC1=O (some centres undefined) Test system: Melanocortin receptor 3 (Mus musculus) Read-out: Ki Value: ?
1000

Try C[C@@H]1NC(=O)[C@H](CC(N)=O)NC(=O)[C@H](Cc2ccccc2)NC(=O)[C@H](Cc2ccc(-c3ccccc3)cc2)NC(=O)[C@H](CCCNC(=N)N)NC(=O)[C@@H]2CCCN2C(=O)[C@H]2CCCN2C(=O)[C@H](Cc2ccccc2)NC1=O (cyclo(R[Bip]FNAF[dP]P)) next.
630

Try `C[C@@H]1NC(=O)[C@H](CCCCN)NC(=O)[C@H](Cc2ccccc2)NC(=O)[C@H](Cc2ccccc2)NC(=O)[C@H](CCCNC(=N)N)NC(=O)[C@@H]2CCCN2C(=O)[C@H]2CCCN2C(=O)[C@H](Cc2ccccc2)NC1=O` next.
100

Switching to the query record.
Item: C[C@@H]1NC(=O)C(CCCN)NC(=O)[C@H](Cc2ccccc2)NC(=O)[C@H](Cc2ccccc2)NC(=O)[C@H](CCCNC(=N)N)NC(=O)[C@@H]2CCCN2C(=O)[C@H]2CCCN2C(=O)[C@H](Cc2ccccc2)NC1=O (some centres undefined) Test system: Melanocortin receptor 3 (Mus musculus) Read-out: Ki Value: ?
160

====

- STUDY_SYSTEM: UniProtKB Q01727
- Sequence (Q01727 whole entry): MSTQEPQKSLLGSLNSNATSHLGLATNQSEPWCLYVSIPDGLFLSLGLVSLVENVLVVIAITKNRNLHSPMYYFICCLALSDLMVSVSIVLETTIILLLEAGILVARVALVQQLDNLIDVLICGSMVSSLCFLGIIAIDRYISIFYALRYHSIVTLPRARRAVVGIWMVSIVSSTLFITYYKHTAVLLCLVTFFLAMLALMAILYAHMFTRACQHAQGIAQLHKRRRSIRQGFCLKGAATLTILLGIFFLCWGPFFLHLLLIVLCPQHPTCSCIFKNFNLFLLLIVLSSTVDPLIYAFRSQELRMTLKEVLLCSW
- ASSAY_NOTES: Agonist activity at mouse MC1R expressed in HEK293 cells by cAMP functional bioassay
- Assay type: cell-based
Where a SMILES comes first, the peptide text is derived from it. [ ]: non-standard residue; d: D form. Bip = N[C@@H](Cc1ccc(-c2ccccc2)cc1)C(=O)O
EC50 under 4 µM gets yes (1), anything at or over 4 µM gets no (0).

Hi there! Is EC50 for C[C@@H]1NC(=O)[C@H](CC(N)=O)NC(=O)[C@H](Cc2ccccc2)NC(=O)[C@H](Cc2ccc(-c3ccccc3)cc2)NC(=O)[C@H](CCCNC(=N)N)NC(=O)[C@@H]2CCCN2C(=O)[C@H]2CCCN2C(=O)[C@H](Cc2ccccc2)NC1=O (cyclo(R[Bip]FNAF[dP]P)) below 4 µM, do you know?
yes (1)

Try `C[C@@H]1NC(=O)[C@H](Cc2ccccc2)NC(=O)[C@H](C)NC(=O)[C@H](CC(N)=O)NC(=O)[C@H](Cc2ccccc2)NC(=O)[C@H](Cc2ccccc2)NC(=O)[C@H](CCCNC(=N)N)NC(=O)[C@H](C)NC(=O)[C@H](Cc2ccc(O)cc2)NC(=O)[C@@H]2CCCN2C(=O)[C@H]2CCCN2C(=O)[C@H](Cc2ccc(O)cc2)NC1=O` next.
no (0)

Try C[C@@H]1NC(=O)[C@H](CC(N)=O)NC(=O)[C@H](Cc2ccccc2)NC(=O)[C@H](Cc2ccccc2)NC(=O)[C@H](CCCNC(=N)N)NC(=O)[C@H]([C@@H](C)O)NC(=O)[C@H](Cc2ccc(O)cc2)NC(=O)[C@@H]2CCCN2C(=O)[C@H]2CCCN2C(=O)[C@H](Cc2ccc(O)cc2)NC(=O)[C@H]([C@@H](C)O)NC(=O)[C@H](Cc2ccccc2)NC1=O (cyclo(YTRFFNAFTY[dP]P)) next.
no (0)

Try `C[C@@H]1NC(=O)[C@H](CC(N)=O)NC(=O)[C@H](Cc2ccc(-c3ccccc3)cc2)NC(=O)[C@H](Cc2ccccc2)NC(=O)[C@H](CCCNC(=N)N)NC(=O)[C@@H]2CCCN2C(=O)[C@H]2CCCN2C(=O)[C@H](Cc2ccccc2)NC1=O` next.
yes (1)

Then there is this compound:
Hi there! Is EC50 for `C[C@@H]1NC(=O)[C@H](CC(N)=O)NC(=O)[C@H](Cc2ccccc2)NC(=O)[C@H](Cc2ccccc2)NC(=O)[C@H](CCCNC(=N)N)NC(=O)[C@@H]2CCCN2C(=O)[C@H]2CCCN2C(=O)[C@H](Cc2ccccc2)NC1=O` below 4 µM, do you know?
no (0)

====

- STUDY_SYSTEM: Melanocortin receptor 3 (Mus musculus, UniProt P33033)
- Sequence (P33033 whole entry): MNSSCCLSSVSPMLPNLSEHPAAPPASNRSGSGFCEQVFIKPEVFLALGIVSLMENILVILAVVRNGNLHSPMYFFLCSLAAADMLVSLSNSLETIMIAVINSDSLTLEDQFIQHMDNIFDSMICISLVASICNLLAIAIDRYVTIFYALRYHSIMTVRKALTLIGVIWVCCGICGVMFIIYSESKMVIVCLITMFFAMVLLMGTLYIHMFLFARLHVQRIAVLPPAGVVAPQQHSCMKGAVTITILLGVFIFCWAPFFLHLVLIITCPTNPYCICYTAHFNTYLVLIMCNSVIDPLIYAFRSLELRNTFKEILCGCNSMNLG
- ASSAY_NOTES: Displacement of MTII from mouse MC3R expressed in HEK293 cells
- Type: cell-based
- MEASUREMENT_SETUP: read-out: pA2 (converted)
OBSERVED_PROPERTY: Kb (nM)
Dear colleague, please return just the value in nM, with no unit written.

Would you mind telling me what Kb value was observed for C[C@@H]1NC(=O)C(CN)NC(=O)[C@H](Cc2ccccc2)NC(=O)[C@H](Cc2ccccc2)NC(=O)[C@H](CCCNC(=N)N)NC(=O)[C@@H]2CCCN2C(=O)[C@H]2CCCN2C(=O)[C@H](Cc2ccccc2)NC1=O (stereo partly drawn) ?
126

Further cases:
Would you mind telling me what Kb value was observed for C[C@@H]1NC(=O)[C@H](CC(N)=O)NC(=O)[C@H](Cc2ccccc2)NC(=O)C(Cc2ccc3ccccc3c2)NC(=O)[C@H](CCCNC(=N)N)NC(=O)[C@@H]2CCCN2C(=O)[C@H]2CCCN2C(=O)[C@H](Cc2ccccc2)NC1=O (stereo partly drawn) ?
1000

Try C[C@@H]1NC(=O)C(CCN)NC(=O)[C@H](Cc2ccccc2)NC(=O)[C@H](Cc2ccccc2)NC(=O)[C@H](CCCNC(=N)N)NC(=O)[C@@H]2CCCN2C(=O)[C@H]2CCCN2C(=O)[C@H](Cc2ccccc2)NC1=O (stereo partly drawn) next.
100
